- TEST SYSTEM: MNK2a (Homo sapiens, UniProt Q9HBH9)
- Sequence (Q9HBH9 whole entry): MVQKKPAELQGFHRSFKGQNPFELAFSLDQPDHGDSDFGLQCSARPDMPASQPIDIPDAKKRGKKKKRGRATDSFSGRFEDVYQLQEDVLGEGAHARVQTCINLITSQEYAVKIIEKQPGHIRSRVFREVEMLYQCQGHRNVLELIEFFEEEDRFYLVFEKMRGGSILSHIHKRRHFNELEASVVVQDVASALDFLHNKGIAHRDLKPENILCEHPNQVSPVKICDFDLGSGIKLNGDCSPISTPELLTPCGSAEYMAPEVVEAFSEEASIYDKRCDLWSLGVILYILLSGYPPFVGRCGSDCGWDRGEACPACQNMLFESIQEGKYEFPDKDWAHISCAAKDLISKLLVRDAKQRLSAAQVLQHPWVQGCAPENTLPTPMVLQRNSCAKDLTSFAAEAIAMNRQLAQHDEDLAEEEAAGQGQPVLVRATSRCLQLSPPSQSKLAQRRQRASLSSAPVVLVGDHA
- ASSAY DETAILS: MNK2a in vitro kinase assay (assay 1), ADP-Glo
- RECORDED CONDITIONS: preactivated GST-MNK2a, 20 μM ATP, read-out: MNK2 IC50
With a cut-off of 3 nM, any IC50 strictly below it is called Criterion met; any IC50 meeting it or above is called Criterion not met.

Look over these answered cases.
| MOLECULE | TEST SYSTEM | LABEL VALUE |
| --- | --- | --- |
| Cc1cc(N=S2(=O)CCOCC2)cc2ncnc(Nc3ccc(F)cc3O[C@H]3CCOC3)c12 | MNK2a (Homo sapiens, UniProt Q9HBH9) | Criterion not met |
| Cc1cc(N=S(C)(C)=O)cc2ncnc(Nc3ccc(F)cc3O[C@@H]3CO[C@H]4[C@@H]3OC[C@@H]4O)c12 | MNK2a (Homo sapiens, UniProt Q9HBH9) | Criterion met |
| Cc1cc(N=S(C)(C)=O)cc2ncnc(Nc3ccc(F)cc3O[C@@H]3CO[C@H]4[C@@H]3OC[C@@]4(C)O)c12 | MNK2a (Homo sapiens, UniProt Q9HBH9) | Criterion met |

INPUT: Please check: IC50 for CS(C)(=O)=Nc1cc(Cl)c2c(Nc3ccc(F)cc3O[C@H]3CCOC3)ncnc2c1 , strictly under 3 nM or not?
OUTPUT: Criterion met

INPUT: Please check: IC50 for Cc1cc(N=S(C)(C)=O)cc2ncnc(Nc3ccc(F)cc3O[C@@H]3CO[C@@H]4CCC[C@@H]43)c12 , strictly under 3 nM or not?
OUTPUT: Criterion met
